target: TYK2 (Homo sapiens, UniProt P29597); assay: TYK2 kinase inhibition (Table A1); format: biochemical; settings: Table D1
Sequence (P29597 whole entry): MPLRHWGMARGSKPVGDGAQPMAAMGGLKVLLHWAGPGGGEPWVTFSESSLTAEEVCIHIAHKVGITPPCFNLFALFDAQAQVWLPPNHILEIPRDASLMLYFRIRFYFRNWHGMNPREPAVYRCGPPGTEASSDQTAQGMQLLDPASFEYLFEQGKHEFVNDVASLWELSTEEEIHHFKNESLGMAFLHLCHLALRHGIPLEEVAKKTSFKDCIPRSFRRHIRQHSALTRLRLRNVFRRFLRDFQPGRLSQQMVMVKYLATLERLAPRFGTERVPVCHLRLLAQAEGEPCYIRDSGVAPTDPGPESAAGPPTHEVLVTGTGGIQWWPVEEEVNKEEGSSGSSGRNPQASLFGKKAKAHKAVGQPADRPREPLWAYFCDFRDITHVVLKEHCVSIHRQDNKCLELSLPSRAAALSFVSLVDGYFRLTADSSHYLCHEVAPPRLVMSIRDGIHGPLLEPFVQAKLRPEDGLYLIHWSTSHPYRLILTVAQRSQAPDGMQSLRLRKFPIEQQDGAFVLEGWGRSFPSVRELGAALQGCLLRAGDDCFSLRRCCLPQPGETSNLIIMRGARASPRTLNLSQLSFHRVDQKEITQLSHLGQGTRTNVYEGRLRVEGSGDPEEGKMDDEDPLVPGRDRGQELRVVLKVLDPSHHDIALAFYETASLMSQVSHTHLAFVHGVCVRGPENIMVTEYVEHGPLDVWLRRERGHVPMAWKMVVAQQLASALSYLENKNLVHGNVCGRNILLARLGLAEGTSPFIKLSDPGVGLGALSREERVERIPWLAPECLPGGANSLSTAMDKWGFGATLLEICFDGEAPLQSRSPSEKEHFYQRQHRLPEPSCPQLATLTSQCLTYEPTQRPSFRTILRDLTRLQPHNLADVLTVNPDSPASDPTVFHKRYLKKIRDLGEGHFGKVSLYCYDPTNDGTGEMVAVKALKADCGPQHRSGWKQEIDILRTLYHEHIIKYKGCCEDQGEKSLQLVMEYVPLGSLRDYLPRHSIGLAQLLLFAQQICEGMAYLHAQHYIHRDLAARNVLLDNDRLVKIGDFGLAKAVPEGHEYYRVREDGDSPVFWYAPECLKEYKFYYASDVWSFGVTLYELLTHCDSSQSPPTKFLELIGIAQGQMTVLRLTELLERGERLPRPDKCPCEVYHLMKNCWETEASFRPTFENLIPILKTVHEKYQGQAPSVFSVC
pIC50: −log10 of the molar value. Structures can show the parent of a compound that is named as a salt.
Output Yes for pIC50 not less than 7; output No otherwise.

IN: Could you verify whether the entry Clc1cnc2nc1Nc1cccc(c1)OCCOc1cccc(c1)N2 [Example D10, trifluoroacetate] shows pIC50 of no less than 7?
OUT: Yes

IN: Evaluate O=C(CC1CN(C(=O)c2nccs2)C1)Nc1ccc2cc1CCc1cncc(c1)Nc1ncc(Cl)c(n1)N2 [Example D145, bis(trifluoroacetate)] : pIC50 at minimum 7?
OUT: No

IN: Please indicate if the recorded pIC50 for CC(=O)N1Cc2cccc(c2)Nc2nc(ncc2Cl)Nc2cccc1c2 [Example D71, trifluoroacetate] meets or exceeds 7.
OUT: No

IN: Quick check, pIC50 >= 7? O=c1[nH]c2cc3cc(c2o1)CCc1cccc(c1)Nc1ncc(Cl)c(n1)N3 [Example D184]
OUT: Yes

IN: Hi team, for O=C1CCc2cccc(c2)Nc2nc(ncc2Cl)Nc2cccc(c2)N1 [Example D76, trifluoroacetate] , is the recorded pIC50 at or above 7?
OUT: Yes

IN: Decide: is the reported value of pIC50 for CC(=O)N1CCC[C@@H](CC(=O)Nc2ccc3cc2CCc2cncc(c2)Nc2ncc(Cl)c(n2)N3)C1 [Example D204, bis(trifluoroacetate)] equal to or greater than 7?
OUT: Yes

IN: Given the entry O=C(C[C@H]1CCCNC1)Nc1ccc2cc1CCc1cncc(c1)Nc1ncc(Cl)c(n1)N2 [Example D195] , answer whether its pIC50 meets or surpasses 7.
OUT: Yes

IN: # check: pIC50 of N#CC1(C(=O)N2CCN(C(=O)COc3ccc4cc3CCc3cncc(c3)Nc3ncc(Cl)c(n3)N4)CC2)CC1 [Example D267, bis(trifluoroacetate)] is greater than or equal to 7
OUT: No

IN: Is the recorded value of pIC50 equal to or greater than 7 for this compound? O=C(COc1ccc2cc1CCc1cncc(c1)Nc1ncc(Cl)c(n1)N2)N1CCN(c2nccs2)CC1 [Example D230, tris(trifluoroacetate)]
OUT: No

IN: Can O=C(c1ccc(C(F)(F)F)cc1)N1CCN(c2ccc3cc2CCc2cccc(c2)Nc2ncc(Cl)c(n2)N3)CC1 [Example D96, bis(trifluoroacetate)] be said to have pIC50 at or above 7?
OUT: No

IN: Say whether Clc1cnc2nc1Nc1cccc(c1)CCOc1cccc(c1)N2 [Example D5, trifluoroacetate] shows pIC50 of 7 or more.
OUT: Yes

====

biological target: TYK2 (Homo sapiens, UniProt P29597); assay: TYK2 kinase inhibition (Table A1); type: biochemical; settings: Table B1
Structures can show the parent of a compound that is named as a salt.
Exercise: for every item that follows, state its recorded pIC50.
// returns pIC50 (minus log10 of molar concentration), number only

IN: Please give measured pIC50 of the following entry: Cn1cncc1C(=O)Nc1ccc2cc1CCc1cccc(c1)Nc1ncc(Cl)c(n1)N2 [Example B51, bis(trifluoroacetate)]
OUT: 8.48

IN: Specify reported pIC50 for the compound shown: O=C(Nc1ccc2cc1CCc1cccc(c1)Nc1ncc(Cl)c(n1)N2)c1ccccc1Cl [Example B41, hydrochloride]
OUT: 8.64

IN: Let me know recorded pIC50 for COCCNC(=O)Nc1ccc2cc1CCc1cccc(c1)Nc1ncc(Cl)c(n1)N2 [Example B243, trifluoroacetate] , thanks.
OUT: 8.51

IN: Quote pIC50 reported for CC(=O)Nc1ccc(S(=O)(=O)Nc2ccc3cc2CCc2cccc(c2)Nc2ncc(Cl)c(n2)N3)cc1 [Example B161, trifluoroacetate] please.
OUT: 8.59

IN: Look up and state reported pIC50 for COc1ccccc1N1CCN(C(=O)Nc2ccc3cc2CCc2cncc(c2)Nc2ncc(Cl)c(n2)N3)CC1 [Example B298, tris(trifluoroacetate)]
OUT: 6.68

IN: Determine its reported pIC50: O=C(Nc1ccc2cc1CCc1cccc(c1)Nc1ncc(Cl)c(n1)N2)C1CC1 [Example B27, trifluoroacetate]
OUT: 7.82

IN: // Input: O=C(Nc1ccc2cc1CCc1cccc(c1)Nc1ncc(Cl)c(n1)N2)c1ccncc1 [Example B39, bis(trifluoroacetate)] . Output its pIC50 only.
OUT: 9.18
